Reference source: the domain aggregation screens of Martell et al. (2025)

# soluble fraction (log2) per entry
Assay: soluble fraction after stress (log2 fold change); higher = more stays soluble; pooled small domains, quantitative proteomics
Details: stress: 50 degC
// print number alone

Known results for sequences:
INSERT INTO measurements (seq_text, recorded_metric, numeric_value) VALUES
  ('HMTDVIADMLTRIRNAASSKHQTVDIPSSNLKKEIAKILLEEGYIRDFIEIDDKKQGIIRITL', 'soluble fraction (log2)', -0.389),
  ('HMHKKQEVQDSIDAAEEFMRASGVPAELITSKRAYAVKAIYADAVDKGTPDEIVKKDGMIVALISQMRS', 'soluble fraction (log2)', 0.267),
  ('HMDMDRRALLLALINDRYHASVAEFARAINKAPAQVHQWLSGNRALGNAGARDIEIRLNLAQGYFDH', 'soluble fraction (log2)', -1.91),
  ('HMVWMIEKDQSVILVNKLERIQVEALGKALENGNFGDRIRVINNKSGQKLLGIVESEKKIQIISKI', 'soluble fraction (log2)', -2.44),
  ('HMRLEEVSVPQRLLAAIAEEREVQIGIVDGRGGTRVLRVEPLALEGGRLRARDVESGEEFTVLIHRVLL', 'soluble fraction (log2)', -0.274);

Query block: Specify measured soluble fraction (log2) for HMGRGAAKGPLKELGLDPVTGRPLVVKDGKFGMYVTDGETNAGLRRGDLVEQLTLDRGMELLAERRARADQ .
Result block: 0.203

Query block: Answer with the recorded soluble fraction (log2) for the sequence listed here: HMNGVFIMHTPDGKVLRTEEGEEAVITLFNWSGQLLWSKTSLGQLPLPEGTQGVLQVQYKSGDQHTIKT
Result block: -0.267

Query block: Identify measured soluble fraction (log2) corresponding to HMDVQNLTKKNQEFINIVTHQLLQSGKSDEDIQTILAKTLPEIIEKQKQGIPARSFLGAPTAWAAQFI
Result block: 0.133

Query block: Write down soluble fraction (log2) measured for item HMASVLTAKLSEREVDVLNLLARGFTNADIAAQLHLSEGTVRNHVSTIFAKLDVNDRTQAAVIAIRHGL
Result block: -0.775

Query block: Return soluble fraction (log2) for the following sequence: HMPQNLQDQLFELILSRYPRRADAVEDLANILHLGKDPVYRRLRGDTFLSPLEISTLALHFRISLDALIV
Result block: -2.55

* * *

Experiment: soluble fraction after stress (log2 fold change); higher = more stays soluble; pooled small domains, quantitative proteomics
Details: stress: 50 degC
Response key: y means soluble fraction (log2) >= -0.06; n means soluble fraction (log2) < -0.06.

Query block: Is the recorded value of soluble fraction (log2) equal to or greater than -0.06 for this sequence? HMALKQADFDFIRQMIQQRAAIVLDDNKHYFVESRLGPVVEETGSKSLDQLIDQLRSSSNSLLQQKVTEAI
Result block: n

Query block: For this sequence, is measured soluble fraction (log2) -0.06 or higher? HMQERTVVKGVVVQVSRDEAYVDIGYKQEIPVSKRDLAVPAPDDARDVVKVGDEIDVYIKSLGGDNGG
Result block: y

Query block: # bool: soluble fraction (log2) of HMATARPPPPPESRVEVLFDGRWYAGTVVGGALDEHRATVFFDADRLSQVINFAETGIRVLGT >= -0.06
Result block: n

Query block: Tell me whether soluble fraction (log2) is at least -0.06 here: HMQTSETVYTTDKVNVRAGADTSSDKLGSVEKGTSLTRTGTDGDWSIIDYNGTTGYIKSEYLSATAPE
Result block: y

Query block: # check: soluble fraction (log2) of HMDLDPNKPAIPIAYPRVLLNIMAEKGFSRTEVLAGSGLADSVFDKPDHRITPAQFLFILMNSFYLS is greater than or equal to -0.06
Result block: n

Query block: Please tell me: is the sequence HMQDLTAQQQAILSFLKEHPKATRKEISENIPNITEDNIRYNLSQLQELGFVKSMGDSFIRIAI at or over -0.06 in terms of soluble fraction (log2)?
Result block: y

Query block: For this sequence, is measured soluble fraction (log2) -0.06 or higher? HMEEIIPIRFLRHRVKRRETIFGLTQKYNITEDQLKRYNTRLYSEALERKMVLQIPVFPEVDED
Result block: n

* * *

Assay: soluble fraction after stress (log2 fold change); higher = more stays soluble; pooled small domains, quantitative proteomics
Conditions: stress: 50 degC
// label = yes (1) if soluble fraction (log2) is not less than 0.1, otherwise no (0)

Example cases with answers are listed next.
INSERT INTO results (seq_text, class_name) VALUES
  ('HMDYADISYKIFMNHIKNGQVERVELSGDPRIMGKLKDGTYFVTDNPRTENFKEFLLLNNVQVIETN', 'yes (1)'),
  ('HMQQISDPQVLRPMAEEVLHQSQKVVQDYKGGNKNAFHALVGQMMKKTQGKGNPQVIGQVLSELLDE', 'yes (1)'),
  ('HMVSDAWITGKVKSQLLADDVTPGMKIDVDTEDRIVSLKGTVPSLTARNEAIRIASHTKGVRTVDADELIV', 'yes (1)'),
  ('HMKPSTVSVPDVSGDKLSTAKMIIRKSGLKVGDVQKIEDDNVGAGKVVRTNPSAGSKKREGSSVDIFVASA', 'yes (1)'),
  ('HMSKQEFVDRLRVSLSGKISPASVEDNARYYEDYINTHIRLGEPEEDVLEGLGDPRLIARSIVAAESV', 'no (0)'),
  ('HMVSVLGRRIKELRLQNSMTQMQLAKKLGYKGNSLVAGWELGKNYPSVSSIKRLSEIFDTDLMKYVG', 'no (0)');

Query block: Check if soluble fraction (log2) >= 0.1 (inclusive). Item: HMNAISIDEAKKIALAKVSGASDQHIRIEADHDDGRLVYEGEIHYGRVEYEFEIDGSTGAIIEWDADRK
Result block: no (0)

Query block: Is soluble fraction (log2) at least 0.1? Consider HMNTYEIIGGDNRARGPVTGEELSQWIREGRASGHTMARVSDGEHWQPLGSFPEFVGPLQGLPW
Result block: yes (1)

* * *

Assay: soluble fraction after stress (log2 fold change); higher = more stays soluble; pooled small domains, quantitative proteomics
Conditions: stress: 50 degC
just bin them by soluble fraction (log2): bottom range: < -0.4; center range: ≥ -0.4 and < -0.06; top range: ≥ -0.06

As a guide, the following entries are already answered.
INSERT INTO assay_data (seq_text, class_name) VALUES
  ('HMDTNVPVPNVNGMTLNQAKAALEAAGFHVAVNWLGEKSDNNSVISYEPNGSAAKGTTITITVIAQPEQDG', 'top range'),
  ('HMQLPDLDEIRQMRKRLDLSQRELAALAGVSQSLIAKIEKGSIDPSYDNVRKIFNAFENILKKRALE', 'center range'),
  ('HMEDPVAQEARAAFEVGRLLAAATGPVTLAAIRRAIDLPEERLEEILRRLEESGAVRRARDGWLPG', 'top range'),
  ('HMGASLVIVPGAGFLRVSASSQTRLDVYSITGMRVRSVDFEPGTTEIELPAGFYIAGGRKFFV', 'bottom range');

Query block: Which bin, given its soluble fraction (log2), does HMRTNNEITSYKLKSGKKRWKFQTYLGLDDKGQKVSVTRQGFRTYNEAISEYNKLRAQGTQGYQ occupy?
Result block: center range

Query block: Into which bin does this sequence go? HMHSLGDQVFETIKELIVNNTYQPGELLQIDKLAAEFGVSTTPVREALLRLEGLGLVDIERNKAAVVT
Result block: center range

Query block: Form field 'band' for HMTPTFSNQDLIKAGLAGSPVAKRRRERLGELLGIGYGNAKQLLKRLDLFAIDRPTFERAVAQLDQEGK
Result block: center range

Query block: Each sequence maps to one class by soluble fraction (log2). Which class for HMEELGKVRPELDGNEIAKVLGITPGPVLGRAYTYLLSVRLDEGPIGPDVARERLLAWWAEQPES ?
Result block: bottom range

Query block: Which band does HMTMEFGEFLAKLRKERGYYQKEVAAYLNVTVATISNYEKNVHAPDLDTLVKLADFYDVSTDYLLQRT fall in?
Result block: bottom range

Query block: Hi there! Could you help me figure out the category for HMSIHPRDKADLGTALSKWKKGALDDKQLELEVARVFMRTYGKKLEGQALNKAVAAWVAALTQSKK please?
Result block: top range

* * *

Test: soluble fraction after stress (log2 fold change); higher = more stays soluble; pooled small domains, quantitative proteomics
Settings: stress: 50 degC
Recorded metric: soluble fraction (log2)
In your answer, state the number alone without any accompanying words.

INSERT INTO assay_data (seq_text, numeric_value) VALUES
  ('HMSTTHLTASVIKDKVNVRSEADSQNGAIIDKARTGERLLVTDYGNKWTGIVLPDGKRGYIMTEYLQF', 0.0443),
  ('HMAESNQIQLSDVREALNMIGPASWLDLVHYLDTGKGRGGQRLRRMLKSLSRSGEIELVARGTYQITDN', -0.422),
  ('HMTKTEFLNLLEQRLFVLNDNERADLLSEYKQHIEMKIQSGLSEEEAIADFGDPEELIKELLEAY', -0.33),
  ('HMKPVSEMDNMEWVREQYFQNMIYEIGEWVKDKKTGIVGEIVKRGTNYVTIVQEDFSLHKIWLEDLETTE', -0.325),
  ('HMRAMWENLFFQYKEGFLPEEYYKQGIATGIRLAGPKFVEMNIPMQKEFEDEVHRLLAEHEKSVK', -0.748),
  ('HMRRVEDVRTALEHFAAARNTTPMAMTLDQRREAMRELAASGLLNLRRALSEVAQTLGVARSTVYTYLP', -0.84),
  ('HMDEQVETLKNLISELPKEQLEVLVMRHYEDLSFKEISEKTGVSINTALGRMRYALINIRKLMKENN', -0.223);

// switching to the query sequence
Query block: State its soluble fraction (log2): HMFDFLELGQAIQDAREKQRITREELAEELGISARHLQSVEKEGQYPSFRLFIQLVTMFHISVDQYI
Result block: -0.0829
